test: Solubility pH 7.4; conditions: pH 7.4, aqueous buffer
In this section we review reported solubility values for a set of molecules.
Only the number, expressed in µg/mL, is required.

• CCOC(=O)CNC(=O)Oc1cc(OC(=O)NCC(=O)OCC)c2c(c1)O/C(=C\c1cn(CCCN(C)C)c3ccc(OC)cc13)C2=O = 51
• COc1ccc2c(c1)c(/C=C1\Oc3cc(OC(=O)OC(C)C)cc(OC(=O)OC(C)C)c3C1=O)cn2CCCN(C)C = 3
• COc1ccc2[nH]c(-c3ccccc3)c(/C=C3\Oc4cc(OC(=O)Oc5ccccc5)cc(OC(=O)Oc5ccccc5)c4C3=O)c2c1 = 1
• COc1ccc2[nH]c(-c3ccccc3)c(/C=C3\Oc4cc(OP(=O)(O)c5ccccc5)ccc4C3=O)c2c1 = 11

Task: # query: solubility of entry COc1ccc2[nH]c(-c3ccccc3)c(/C=C3\Oc4cc(OC(=O)c5ccccc5)ccc4C3=O)c2c1
Result: 4

Task: # query: solubility of entry COc1ccc2c(c1)c(/C=C1\Oc3cc(OC(=O)C(C)(C)C)cc(OC(=O)C(C)(C)C)c3C1=O)cn2CCCN(C)C
Result: 1

Task: # query: solubility of entry COc1ccc2c(c1)c(/C=C1\Oc3cc(O)cc(O)c3C1=O)c(C)n2CCN1CCN(C)CC1
Result: 32

Origin of values: patent US20100061982A1
